Assay: physchem
Conditions: octanol/water, pH 10
MEASUREMENT NAME: logP
Respond with the number and no other words.

// below: answered compounds
[
  {
    "COMPOUND": "CNS(=N)(=O)c1ccc(C(F)(F)F)cc1 (stereo not drawn)",
    "REPORTED": -0.5
  },
  {
    "COMPOUND": "CS(=O)(=O)c1ccc(C(F)(F)F)cc1",
    "REPORTED": 1.5
  }
]

Lab note: next compound to report on.
Indicate its recorded logP; the compound in question is "CS(C)(=O)=NC(=O)Nc1ccc(C(F)(F)F)cc1"
1.6

* * *

Listed here are compounds together with their documented hepatic extraction ratio at 1 µM.
Test: in vitro
Details: human, liver microsomes

Here is how some compounds turned out for hepatic extraction ratio at 1 µM.
[
  {
    "COMPOUND": "O=S1(=Nc2ccc(C(F)(F)F)cc2)CCC1",
    "hepatic extraction ratio at 1 µM": "< 0.23"
  },
  {
    "COMPOUND": "C[S@@](=O)(=Nc1ccc(C(F)(F)F)cc1)c1ccccc1",
    "hepatic extraction ratio at 1 µM": "< 0.23"
  },
  {
    "COMPOUND": "O=S1(=Nc2ccc(C(F)(F)F)cc2)CCCC1",
    "hepatic extraction ratio at 1 µM": 0.26
  },
  {
    "COMPOUND": "O=S1(c2ccc(C(F)(F)F)cc2)=NCCCC1 (stereo unspecified)",
    "hepatic extraction ratio at 1 µM": "< 0.23"
  },
  {
    "COMPOUND": "CS(C)(=O)=Nc1ccc(C(F)(F)F)cc1",
    "hepatic extraction ratio at 1 µM": "< 0.23"
  }
]

Fill in hepatic extraction ratio at 1 µM for record CNS(=N)(=O)c1ccc(C(F)(F)F)cc1 (stereo unspecified)
0.45

Dear colleague, please send me the reported hepatic extraction ratio at 1 µM for "O=S1(=Nc2ccc(C(F)(F)F)cc2)CCOCC1" when you can.
< 0.23

Determine its reported hepatic extraction ratio at 1 µM: "CS(=O)(=O)NC(=O)Nc1ccc(C(F)(F)F)cc1"
< 0.23

* * *

Assay: in vitro
Details: human, liver microsomes
MEASUREMENT NAME: hepatic extraction ratio at 1 µM

Answered examples (2):
[
  {
    "MOLECULE": "CS(=O)(=Nc1ccc(C(F)(F)F)cc1)C1CCOCC1 (stereo not drawn)",
    "hepatic extraction ratio at 1 µM": "< 0.23"
  },
  {
    "MOLECULE": "CS(=O)(=Nc1ccc(C(F)(F)F)cc1)c1cccnc1 (stereo not drawn)",
    "hepatic extraction ratio at 1 µM": "< 0.23"
  }
]

As a next step, examine the molecule that follows.
Return hepatic extraction ratio at 1 µM (reported value) for this molecule: CNS(C)(=O)=Nc1ccc(C(F)(F)F)cc1 (stereo not drawn)
< 0.23
